Entry source: ChEMBL document CHEMBL1148771

test: Inhibition of HIV1 Protease M2 variant by FRET based assay; design: species or system Human immunodeficiency virus 1
Dear colleague, classification is by Ki, with ranges listed here: lower band = under 1 nM, central band = from 1 nM up to 10 nM, upper band = 10 nM and over

INSERT INTO results (item_smiles, label_class) VALUES
  ('CC(=O)N[C@H](C(=O)N[C@@H](Cc1ccccc1)C[C@H](O)[C@H](Cc1ccccc1)NC(=O)[C@@H]1CN(c2cccc(C(C)=O)c2)C(=O)O1)C(C)C', 'central band'),
  ('COC(=O)N[C@H](C(=O)NN(CC(C)C)C[C@H](O)[C@H](Cc1ccccc1)NC(=O)[C@@H]1CN(c2ccccc2)C(=O)O1)C(C)(C)C', 'upper band'),
  ('Cc1cccc(C)c1OCC(=O)N[C@@H](Cc1ccccc1)[C@@H](O)C[C@H](Cc1ccccc1)NC(=O)[C@H](C(C)C)N1CCCNC1=O', 'lower band'),
  ('CC(=O)N[C@H](C(=O)N[C@@H](Cc1ccccc1)C[C@H](O)[C@H](Cc1ccccc1)NC(=O)[C@@H]1CN(c2ccc(F)c(F)c2)C(=O)O1)C(C)C', 'central band'),
  ('CC(C)(C)NC(=O)[C@@H]1C[C@@H]2CCCC[C@@H]2CN1C[C@@H](O)[C@H](Cc1ccccc1)NC(=O)[C@H](CC(N)=O)NC(=O)c1ccc2ccccc2n1', 'central band'),
  ('CC(C)[C@@H](C(=O)N[C@@H](Cc1ccccc1)C[C@H](O)[C@H](Cc1ccccc1)NC(=O)[C@@H]1CN(c2ccccc2)C(=O)O1)N1CCCNC1=O', 'upper band'),
  ('Cc1cccc(C)c1OCC(=O)N[C@@H](Cc1ccccc1)[C@@H](O)C[C@H](Cc1ccccc1)NC(=O)[C@@H]1CN(c2ccccc2)C(=O)O1', 'upper band'),
  ('COC(=O)N[C@H](C(=O)N[C@@H](Cc1ccccc1)C[C@H](O)[C@H](Cc1ccccc1)NC(=O)[C@@H]1CN(c2ccccc2)C(=O)O1)C(C)(C)C', 'upper band'),
  ('COC(=O)N[C@H](C(=O)N[C@@H](Cc1ccccc1)[C@@H](O)CN(Cc1ccc(-c2ccccn2)cc1)NC(=O)[C@@H](NC(=O)OC)C(C)(C)C)C(C)(C)C', 'lower band'),
  ('CC(=O)N[C@H](C(=O)N[C@@H](Cc1ccccc1)C[C@H](O)[C@H](Cc1ccccc1)NC(=O)[C@@H]1CN(c2ccccc2)C(=O)O1)C(C)C', 'central band'),
  ('CC(C)CN(C[C@@H](O)[C@H](Cc1ccccc1)NC(=O)O[C@H]1CCOC1)S(=O)(=O)c1ccc(N)cc1', 'lower band');

###

In what follows, each item is paired with its Ki for UniProt:Q9YQ12.
Sequence (Q9YQ12 whole entry): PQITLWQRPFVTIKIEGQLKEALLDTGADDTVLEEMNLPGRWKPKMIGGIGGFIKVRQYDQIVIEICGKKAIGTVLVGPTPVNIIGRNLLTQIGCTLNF
Quantity Kind: Ki (nM)

INSERT INTO assay_data (item_smiles, reported_value) VALUES
  ('O=C(N[C@@H](Cc1ccccc1)[C@@H](O)CN(Cc1ccc(-c2ccccn2)cc1)NC(=O)[C@@H]1CN(c2ccccc2)C(=O)O1)[C@@H]1CN(c2ccccc2)C(=O)O1', 300),
  ('CC(=O)c1cccc(N2C[C@@H](C(=O)N[C@@H](Cc3ccccc3)[C@@H](O)CN(Cc3ccc(-c4ccccn4)cc3)NC(=O)[C@@H]3CN(c4cccc(C(C)=O)c4)C(=O)O3)OC2=O)c1', 1090),
  ('CC(=O)N[C@H](C(=O)N[C@@H](Cc1ccccc1)C[C@H](O)[C@H](Cc1ccccc1)NC(=O)[C@@H]1CN(c2cccc(C(F)(F)F)c2)C(=O)O1)C(C)C', 2.62),
  ('O=C(N[C@@H](Cc1ccccc1)[C@@H](O)C[C@H](Cc1ccccc1)NC(=O)[C@@H]1CN(c2cccc(C(F)(F)F)c2)C(=O)O1)OCc1cccnc1', 41.1),
  ('Cc1cccc(C)c1OCC(=O)N[C@@H](Cc1ccccc1)[C@@H](O)C[C@H](Cc1ccccc1)NC(=O)[C@H]1CN(c2ccccc2)C(=O)O1', 4730),
  ('Cc1cccc(C)c1OCC(=O)N[C@@H](Cc1ccccc1)[C@@H](O)C[C@H](Cc1ccccc1)NC(=O)[C@@H]1CN(c2ccccc2)C(=O)O1', 7.28),
  ('CC(=O)c1cccc(N2C[C@@H](C(=O)N[C@@H](Cc3ccccc3)[C@@H](O)C[C@H](Cc3ccccc3)NC(=O)COc3c(C)cccc3C)OC2=O)c1', 35.1),
  ('COC(=O)N[C@H](C(=O)N[C@@H](Cc1ccccc1)[C@@H](O)CN(CC(C)C)NC(=O)[C@@H]1CN(c2ccccc2)C(=O)O1)C(C)(C)C', 10.6),
  ('O=C(Cc1ccc2c(c1)OCO2)N[C@@H](Cc1ccccc1)[C@@H](O)C[C@H](Cc1ccccc1)NC(=O)[C@@H]1CN(c2ccccc2)C(=O)O1', 657);
